assay-comment: chemical genetic growth profiling, strain panel (AID 1159580);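 further: tested at 20 µM; growth read once vehicle control cultures reached saturation at 30 °C; 1 = growth at the plate median or of vehicle wells; lower values mean less growth of the strain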
condition-details: S. cerevisiae deletion strains, growth OD, locus YOL147C, strain pex11
In all, about 5,500 compounds went through this assay and about 2,000 (36%) were called active. Another 18% or so got no clear call; they are omitted. No stated cut-off is given here; in the data, active means normalized growth mostly below about 0.91 (no sharp cut-off); inconclusive means no clear call, values can overlap the other calls; inactive means mostly above about 0.92. The list shows a part of the results.
Assign a class; possible classes are 1 (yes) for active, 0 (no) for inactive

Challenge: Please let me know the test result on file for CC(C)(O)[C@@H]1Cc2cc3ccc(=O)oc3cc2O1 .
Response given: 0 (no)

Challenge: Please let me know the test result on file for COc1ccc(Cl)cc1C(=O)NCCc1ccc(S(=O)(=O)NC(=O)NC2CCCCC2)cc1 .
Response given: 0 (no)

Challenge: Please let me know the test result on file for COc1c(C(C)C)oc2cc3oc(=O)ccc3cc12 .
Response given: 0 (no)

Challenge: Please let me know the test result on file for O=c1c(O)c(-c2cc(O)c(O)c(O)c2)oc2cc(O)cc(O)c12 .
Response given: 0 (no)

Challenge: Please let me know the test result on file for CC(C)(C)NCC(O)c1cc(O)cc(O)c1 (stereo not drawn) .
Response given: 0 (no)

Challenge: Please let me know the test result on file for O=c1c(O)c(-c2ccc(O)cc2O)oc2cc(O)cc(O)c12 .
Response given: 0 (no)

Challenge: Please let me know the test result on file for COc1ccc(-c2cc(=O)c3c(O)cc(O[C@H]4O[C@H](CO[C@@H]5O[C@@H](C)[C@H](O)[C@@H](O)[C@H]5O)[C@@H](O)[C@H](O)[C@H]4O)cc3o2)cc1 .
Response given: 0 (no)

Challenge: Please let me know the test result on file for Oc1ccc2c(c1)OCC1(O)Cc3cc(O)c(O)cc3C21 (stereo not drawn) .
Response given: 0 (no)

Challenge: Please let me know the test result on file for Oc1cc2c(cc1O)C1c3ccc(O)c(O)c3OCC1(O)C2 (stereo not drawn) .
Response given: 0 (no)

Challenge: Please let me know the test result on file for CC(CC(O)C1OC1(C)C)[C@@H]1CCC2(C)C3=CCC4C(C)(C)C(=O)CCC4(C)C3CC[C@@]12C (stereo partly drawn) .
Response given: 0 (no)

Challenge: Please let me know the test result on file for CC1CC[C@@]2(OC1)O[C@H]1CC3C4CC[C@@H]5C[C@@H](O)CC[C@]5(C)C4CC[C@]3(C)[C@H]1[C@@H]2C (stereo partly drawn) .
Response given: 0 (no)

Challenge: Please let me know the test result on file for CC(C)C1COc2cc3oc(=O)ccc3cc2O1 (stereo not drawn) .
Response given: 1 (yes)

Challenge: Please let me know the test result on file for CCN1C[C@]2(C)CC[C@H](OC)[C@]34C2[C@H](O)[C@]2(OCO[C@@]25C[C@H](OC)[C@H]2C[C@]3(O)C5[C@H]2O)C14 .
Response given: 0 (no)

Challenge: Please let me know the test result on file for CCOCN(C(=O)CCl)c1c(C)cccc1CC .
Response given: 0 (no)

Challenge: Please let me know the test result on file for CCC(c1ccc(O)cc1)C(CC)c1ccc(O)cc1 (stereo not drawn) .
Response given: 0 (no)

Challenge: Please let me know the test result on file for CC1=CC(=O)C2=C(C)CC[C@@H]3[C@H](OC(=O)[C@H]3C)[C@@H]12 .
Response given: 0 (no)

Challenge: Please let me know the test result on file for COc1cc(OC)c2c(=O)c(O)c(-c3ccc(OC)c(OC)c3)oc2c1 .
Response given: 1 (yes)

Challenge: Please let me know the test result on file for COc1cc2occc2c2oc(=O)ccc12 .
Response given: 0 (no)

Challenge: Please let me know the test result on file for COc1c2ccoc2cc2oc(=O)ccc12 .
Response given: 1 (yes)

Challenge: Please let me know the test result on file for COc1ccc(-c2oc3cc(O[C@H]4O[C@H](CO)[C@@H](O)[C@H](O)[C@H]4O)c(OC)c(O)c3c(=O)c2OC)cc1O .
Response given: 0 (no)

Challenge: Please let me know the test result on file for CO[C@@]1(NC(=O)C(C(=O)O)c2ccc(O)cc2)C(=O)N2C(C(=O)O)=C(CSc3nnnn3C)CO[C@@H]21 (stereo partly drawn) .
Response given: 0 (no)

Challenge: Please let me know the test result on file for C[C@@H]1O[C@@H](OC[C@H]2OC(Oc3c(-c4ccc(O)c(O)c4)oc4cc(O)cc(O)c4c3=O)[C@H](O)[C@@H](O)[C@@H]2O)[C@H](O)[C@H](O)[C@H]1O (stereo partly drawn) .
Response given: 0 (no)

Challenge: Please let me know the test result on file for CCc1cc(C(N)=S)ccn1 .
Response given: 0 (no)

Challenge: Please let me know the test result on file for CC1CCC2(OC1)OC1CC3C4CC[C@H]5C[C@@H](O)CC[C@]5(C)C4CC(=O)[C@]3(C)C1C2C (stereo partly drawn) .
Response given: 0 (no)

Challenge: Please let me know the test result on file for CCCC(C)(COC(N)=O)COC(=O)NC(C)C (stereo not drawn) .
Response given: 0 (no)

Challenge: Please let me know the test result on file for C[C@@H]1CC[C@@]2(OC1)O[C@H]1CC3C4CC[C@H]5C[C@@H](O)CC[C@]5(C)C4CC[C@]3(C)[C@H]1[C@@H]2C (stereo partly drawn) .
Response given: 0 (no)

Challenge: Please let me know the test result on file for C=C(C)[C@H]1COc2cc3oc(=O)ccc3cc2O1 .
Response given: 1 (yes)

Challenge: Please let me know the test result on file for COc1ccccc1/C=C\C(=O)O .
Response given: 0 (no)

Challenge: Please let me know the test result on file for O=c1c(O)c(-c2ccc(O)c(O)c2)oc2cc(O)cc(O)c12 .
Response given: 0 (no)

Challenge: Please let me know the test result on file for CCCCCCCCCCCC1=C(O)C(=O)C=C(O)C1=O .
Response given: 1 (yes)

Challenge: Please let me know the test result on file for CC(C1OC(C)(C)C(O)C1O)[C@@H]1CC[C@]2(C)C3=CCC4C(C)(C)C(=O)CC[C@]4(C)C3CC[C@@]12C (stereo partly drawn) .
Response given: 0 (no)

Challenge: Please let me know the test result on file for COc1ccc2ccc(=O)oc2c1 .
Response given: 0 (no)

Challenge: Please let me know the test result on file for C[C@@H]1O[C@@H](OC[C@H]2OC(Oc3c(-c4ccc(OCCO)c(OCCO)c4)oc4cc(OCCO)cc(O)c4c3=O)[C@H](O)[C@@H](O)[C@@H]2O)[C@H](O)[C@H](O)[C@H]1O (stereo partly drawn) .
Response given: 0 (no)

Challenge: Please let me know the test result on file for C[C@@H]1CC[C@@]2(NC1)O[C@H]1C[C@H]3C4CC=C5C[C@@H](O)CC[C@]5(C)C4CC[C@]3(C)C1[C@@H]2C (stereo partly drawn) .
Response given: 1 (yes)

Challenge: Please let me know the test result on file for C[C@]12CCC3c4ccc(O)cc4CCC3C1CC[C@@H]2O (stereo partly drawn) .
Response given: 0 (no)

Challenge: Please let me know the test result on file for CC(=O)Oc1ccc2c(c1OC(C)=O)OCC1(O)Cc3c(cc(OC(C)=O)c(OC(C)=O)c3OC(C)=O)C21 (stereo not drawn) .
Response given: 0 (no)

Challenge: Please let me know the test result on file for CC1CC[C@]2(NC1)O[C@H]1CC3C4CC[C@H]5C[C@@H](O)CC[C@]5(C)C4CC[C@]3(C)[C@H]1[C@@H]2C (stereo partly drawn) .
Response given: 1 (yes)

Challenge: Please let me know the test result on file for COc1cc(O)c2c(=O)c(O)c(-c3ccc(O)c(O)c3)oc2c1 .
Response given: 0 (no)

Attribution: PubChem BioAssay AID1159580
